Molecular target: T1, Histidine-tagged human CD40 protein (hCD40-His) (human, UniProt P25942 21-193)
T1 construct: not shown: histidine tag
T1 sequence (P25942 21-193 limits assumed): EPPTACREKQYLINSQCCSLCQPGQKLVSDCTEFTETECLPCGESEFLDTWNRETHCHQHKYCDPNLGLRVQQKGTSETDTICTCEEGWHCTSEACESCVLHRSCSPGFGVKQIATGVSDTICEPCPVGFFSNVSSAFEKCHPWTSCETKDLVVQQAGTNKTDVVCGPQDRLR
Assay: SPR, Biacore T200; antibody on Protein A chip, hCD40-His injected; 1:1 fit
Overview of reported log10(kon) across a group of binders:
QUANTITY MEASURED: log10(kon) (log10 of the value in M⁻¹ s⁻¹)

• 6A7-H1K1-IgG4 (antibody, V domains shown, Humanized) VH: QVQLVQSGAEVKKPGASVKVSCKASGYTFISYYIYWVRQAPGQGLEWMGGINPRNGGTNFNEKFKSRVTLTVDTSISTAYMELSRLRSEDTAVYYCARHGNGVYWGQGTTVTVSS VL: DVVMTQSPLSLPVTLGQPASISCRSSQSLLHSNGNTYLHWFQQRPGQSPRHLIYQVSNRFSGVPDRFSGSGSGTDFTLKISRVEAEDVGVYYCSQTTHVPWTFGGGTKVEIK = 4.31
• 7F10-H2K2-IgG4 (antibody, V domains shown, Humanized) VH: EVQLVESGGGLVQPGGSLRLSCATSGFTFSDYYMYWVRQAPGKRLEWVAYISYGGDSTFYPDTVRGRFTISRDNAKNSLYLQMSSLKAEDTAVYYCARPAPSAHSYYLDYWGQGTLLTVSS VL: DIQMTQSPSSLSASVGDRVTITCRASQDISNYLNWYQQKPGGAVKLLIYYTSRLHSGLPSRFSGSGSGTDYTFTISSLQPEDIATYYCQQGKTLPFTFASGTKLEIK = 5.03
• 4H6-H3K3-IgG4 (antibody, V domains shown, Humanized) VH: EVQLQESGPGLVKPSQTLSLTCTVSGDSVSSGYWNWIRKHPGKKLEYMGFISYSGSTYYTPSLKSRITISRDTSKNQFSLKLSSVTAADTAVYFCARFRRYDDGVDYWGQGTLVTVSS VL: DIQMTQSPSAMSASVGDRVTITCRASHEISGYLSWIQQKPGGTIKRLINAASTLASGVPSRFSGSRSGTEYTLTISSLQPEDFADYYCLQYSSYPWTFGGGTKLEIK = 5.49
• 7F10-H2K4-IgG4 (antibody, V domains shown, Humanized) VH: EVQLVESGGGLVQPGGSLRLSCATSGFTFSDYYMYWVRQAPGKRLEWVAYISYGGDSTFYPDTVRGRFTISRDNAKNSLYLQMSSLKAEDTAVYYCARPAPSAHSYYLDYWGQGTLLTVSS VL: DIQMTQSTSSLSASVGDRVTITCRASQDISNYLNWYQQKPDGTVKLLIYYTSRLHSGLPSRFSGSGSGTDYTLTISSLQQEDIATYYCQQGKTLPFTFASGTKLEIK = 5.27
• 6A7-H3K2-IgG4 (antibody, V domains shown, Humanized) VH: QVQLVQSGAEVKKPGASVKVSCKASGYTFISYYIYWVRQAPGQGLEWIGGINPRNGGTNFNEKFKSRATLTVDTSISTAYMELSRLRSEDTAVYYCTRHGNGVYWGQGTTVTVSS VL: DVVMTQSPLSLPVTLGQPASISCRSSQSLLHSNGNTYLHWYQQRPGQSPNHLIYQVSNRFSGVPDRFSGSGSGTDFTLKISRVEAEDVGVYFCSQTTHVPWTFGGGTKVEIK = 4.81
• 7F10-H3K3-IgG4 (antibody, V domains shown, Humanized) VH: EVKLVESGGGLVQPGGSLRLSCATSGFTFSDYYMYWVRQAPEKRLEWVAYISYGGDSTFYPDTVRGRFTISRDNAKNALYLQMSRLKAEDTAVYYCARPAPSAHSYYLDYWGQGTTLTVSS VL: DIQMTQSTSSLSASVGDRVTITCRASQDISNYLNWYQQKPGGAVKLLIYYTSRLHSGLPSRFSGSGSGTDYTLTISSLQQEDIATYYCQQGKTLPFTFASGTKLEIK = 5.12
